- tested-system: mushroom tyrosinase (Agaricus bisporus, UniProt C7FF04)
- Sequence (C7FF04 1-392): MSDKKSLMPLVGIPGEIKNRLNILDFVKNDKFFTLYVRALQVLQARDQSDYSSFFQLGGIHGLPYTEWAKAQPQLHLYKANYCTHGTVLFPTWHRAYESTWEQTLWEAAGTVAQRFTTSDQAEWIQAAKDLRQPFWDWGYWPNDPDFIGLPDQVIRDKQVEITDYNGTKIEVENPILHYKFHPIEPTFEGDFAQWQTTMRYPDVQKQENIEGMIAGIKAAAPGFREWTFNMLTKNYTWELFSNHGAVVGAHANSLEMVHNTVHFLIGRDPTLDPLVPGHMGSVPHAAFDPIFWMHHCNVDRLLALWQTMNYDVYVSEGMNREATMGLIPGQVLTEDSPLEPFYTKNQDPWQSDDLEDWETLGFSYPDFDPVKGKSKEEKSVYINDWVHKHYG
outcome-measure: pIC50
Lab note: report pIC50 as minus log10 of the concentration in molar units, number only.

Challenge: Need pIC50 of COc1cc(/C=C/C(=O)O)ccc1O , thanks.
Response given: 6.32
